Reference source: patent US20220133913A1

For each of the binders below, state its kon.
tgt: T1, human αvβ3 integrin ITGAVB3 (human, UniProt P06756 31-992; P05106 27-718, limits assumed)
T1 construct: Recombinant heterodimer used as immunogen, ELISA coating and SPR ligand; also called A5B3; A5b3
measurement-notes: SPR, αvβ3 integrin immobilised on CMDH chip, nanobody as analyte
Answer with the value and then the unit.

Look up kon: single-domain antibody VHH-22 containing His6 tag (VHH, also called Nanobody #22) VHH: QVQLVESGGGSVQAGGSLRLSCVVSGYTCSVYDMIWYRQPPGKEREFVSLINSNGRTTYADSVKGRFTISQNNAKNTVYLQMNSLKPEDTAMYYCHAACYSPSRLNYWGQGTLVTVSS
62700 M⁻¹ s⁻¹

Quick check: kon of single-domain antibody VHH-25 containing His6 tag (VHH, also called Nanobody #25; pALT-Avb3 VHH25 product) VHH: EVQLVESGGGSVQAGGSLRLSCVVSGYTCSVYDMIWYRQPPGKEREFVSLINSNGRTTYADSVKGRFTISQNNAKNTVYLQMNSLKPEDTAMYYCHAACYSPSRLNYWGQGTQVTVSS ?
98600 M⁻¹ s⁻¹

Need kon, item single-domain antibody VHH-13 containing His6 tag (VHH, also called Nanobody #13) VHH: HVQLVESGGGSVQPGESLRLSCVASGYTVSSSCMAWFRQAPGKEREVVATIVVTSDTTSTFYADSVKGRFTISPDNAKNTLNLQMNSLEPSDTAMYYCAADRKWNVCSRGYRYTPNWANQFTFWGQGTQVTVSS
115000 M⁻¹ s⁻¹

# lookup: kon of single-domain antibody VHH-25 containing lysin and His6 tags (VHH, also called Nanobody #25-Lys; VHH-25-K1; not shown: C-terminal lysine tag and His6 tag with any linker) VHH: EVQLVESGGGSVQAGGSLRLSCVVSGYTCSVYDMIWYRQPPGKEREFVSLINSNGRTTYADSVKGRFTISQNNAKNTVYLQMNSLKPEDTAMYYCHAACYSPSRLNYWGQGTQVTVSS
173000 M⁻¹ s⁻¹
